- Target under test: GST-ALK5 (Homo sapiens, UniProt P36897)
- Sequence (P36897 34-503): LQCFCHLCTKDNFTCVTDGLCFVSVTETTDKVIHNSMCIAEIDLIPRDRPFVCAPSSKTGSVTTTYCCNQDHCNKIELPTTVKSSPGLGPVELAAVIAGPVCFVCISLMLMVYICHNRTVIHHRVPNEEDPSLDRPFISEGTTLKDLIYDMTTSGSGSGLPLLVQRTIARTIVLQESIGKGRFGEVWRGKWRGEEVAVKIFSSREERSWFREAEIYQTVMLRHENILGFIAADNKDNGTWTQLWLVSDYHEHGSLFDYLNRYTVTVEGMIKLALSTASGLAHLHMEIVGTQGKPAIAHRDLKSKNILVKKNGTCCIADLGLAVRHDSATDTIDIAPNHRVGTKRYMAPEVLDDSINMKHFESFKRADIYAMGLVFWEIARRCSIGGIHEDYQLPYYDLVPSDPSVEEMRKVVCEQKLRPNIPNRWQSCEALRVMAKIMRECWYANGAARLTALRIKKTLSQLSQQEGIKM
- Experiment notes: In-vitro (enzyme) kinase assay, 384-well flashplate (Example 36)
- Type: biochemical
- Stated conditions: Table 2, intermediate; GST-ALK5 flashplate assay; read-out: TβR activity (Example 36)

| Smiles str | Target under test | IC50 |
| --- | --- | --- |
| Cc1ccn(-c2cc(-c3cncc(Br)c3)c3cccnc3n2)n1 | GST-ALK5 (Homo sapiens, UniProt P36897) | > 10 µM |

----------
- Target under test: GST-ALK5 (Homo sapiens, UniProt P36897)
- Experiment notes: In-vitro (enzyme) kinase assay, 384-well flashplate (Example 36)
- Format: biochemical
- Stated conditions: GST-ALK5, GST-SMAD2 substrate, 3 mM ATP, 30° C., 45 min; read-out: TβR activity (Example 36)
Measured metric: IC50

| Smiles str | Measured metric | Observed value |
| --- | --- | --- |
| OCCN1CCC(n2cc(-c3cncc(-c4cc(-c5ccccc5F)nc5ncccc45)c3)cn2)CC1 | IC50 | < 100 nM |
| Fc1ccccc1-c1cc(-c2cncc(-n3cccn3)c2)c2cccnc2n1 | IC50 | 100 to 1000 nM |
| Fc1ccc(Cl)cc1-c1cc(-c2cncc(-c3ccc4c(c3)OCCO4)c2)c2cccnc2n1 | IC50 | 100 to 1000 nM |
| Fc1ccc(F)c(-c2cc(-c3cncc(-c4cnn(C5CCNCC5)c4)c3)c3cccnc3n2)c1 | IC50 | < 100 nM |
| N#Cc1cccc(-c2cncc(-c3cc(-c4cc(Cl)ccc4F)nc4ncccc34)c2)n1 | IC50 | > 10000 nM |
| Fc1ccc(Cl)cc1-c1cc(-c2cncc3ccccc23)c2ccccc2n1 | IC50 | 1000 to 10000 nM |
| Fc1ccc(Cl)cc1-c1cc(-c2cncc(-c3ccc(OCCN4CCCC4)cc3)c2)c2cccnc2n1 | IC50 | < 100 nM |
| CN1CCC(n2cc(-c3cncc(-c4cc(-c5cc(F)ccc5F)nc5ncccc45)c3)cn2)CC1 | IC50 | < 100 nM |

----------
- Target under test: GST-ALK5 (Homo sapiens)
- Experiment notes: In-vitro (enzyme) kinase assay, 384-well flashplate (Example 36)
- Format: biochemical
- Stated conditions: GST-ALK5, GST-SMAD2 substrate, 3 mM ATP, 30° C., 45 min; read-out: TβR activity (Example 36)
Reported IC50 values are given for each entry in this list.
Measured metric: IC50

| Smiles str | Measured metric | Observed value |
| --- | --- | --- |
| CN1CCN(c2ccc(-c3cncc(-c4cc(-c5cc(F)ccc5F)nc5ncccc45)c3)cc2)CC1 | IC50 | < 100 nM |
| CC(C)N1CCC(c2ccc(-c3cncc(-c4cc(-c5cc(Cl)ccc5F)nc5ncccc45)c3)cc2)CC1 | IC50 | < 100 nM |
| Cn1cc(-c2cncc(-c3cc(-c4cccc(C(F)(F)F)c4)nc4ncccc34)c2)cn1 | IC50 | 100 to 1000 nM |
| Cn1cc(-c2cncc(-c3cc(-c4ccccc4F)nc4ncccc34)c2)cn1 | IC50 | < 100 nM |

----------
- Target under test: GST-ALK5 (Homo sapiens)
- Experiment notes: In-vitro (enzyme) kinase assay, 384-well flashplate (Example 36)
- Format: biochemical
- Stated conditions: GST-ALK5, GST-SMAD2 substrate, 3 mM ATP, 30° C., 45 min; read-out: TβR activity (Example 36)
- Experimental: In-vitro (Enzyme) Assay for Determination of the Efficacy of Inhibitors of the Inhibition of TGF-beta-Mediated Effects The kinase assay was carried out as 384-well flashplate assay. […] Radioactivity was measured in the TopCount. The IC50 values were calculated using RS1.
pIC50: −log10 of the molar value. Structures can show the parent of a compound that is named as a salt.
Reported pIC50 values are given for each entry in this list.
Measured metric: pIC50

| Molecule | Target under test | Measured metric | Observed value |
| --- | --- | --- | --- |
| Fc1ccc(Cl)cc1-c1cc(-c2cncc(-c3cccc(C4CCNCC4)c3)c2)c2cccnc2n1 | GST-ALK5 (Homo sapiens) | pIC50 | > 7.00 |
| CN1CCC(n2cc(-c3cncc(-c4cc(-c5cc(Cl)ccc5F)nc5ncccc45)c3)cn2)CC1 | GST-ALK5 (Homo sapiens) | pIC50 | > 7.00 |
| OCCn1cc(-c2cncc(-c3cc(-c4cc(Cl)ccc4F)nc4ncccc34)c2)cn1 | GST-ALK5 (Homo sapiens) | pIC50 | > 7.00 |
| Fc1ccc(Cl)cc1-c1cc(-c2cncc(-c3ccc(N4CCNCC4)cc3)c2)c2cccnc2n1 | GST-ALK5 (Homo sapiens) | pIC50 | > 7.00 |
| Fc1ccc(Cl)cc1-c1cc(-c2cncc(-c3ccc(Cl)nn3)c2)c2cccnc2n1 | GST-ALK5 (Homo sapiens) | pIC50 | 6.00 to 7.00 |
| CN1CCN(c2ccnc(-c3cncc(-c4cc(-c5ccccc5F)nc5ncccc45)c3)n2)CC1 | GST-ALK5 (Homo sapiens) | pIC50 | 6.00 to 7.00 |
| CCOC(=O)c1cccc(-c2cncc(-c3cc(-c4cc(Cl)ccc4F)nc4ncccc34)c2)n1 | GST-ALK5 (Homo sapiens) | pIC50 | 5.00 to 6.00 |
| CC(=O)N1CCc2cc(-c3cncc(-c4cc(-c5cc(Cl)ccc5F)nc5ncccc45)c3)ccc21 | GST-ALK5 (Homo sapiens) | pIC50 | > 7.00 |
| OCCN(CCO)c1cccc(-c2cncc(-c3cc(-c4cc(Cl)ccc4F)nc4ncccc34)c2)n1 | GST-ALK5 (Homo sapiens) | pIC50 | > 7.00 |
| Fc1ccc(Cl)cc1-c1cc(-c2cncc(-c3ccc4c(c3)NCCC4)c2)c2cccnc2n1 | GST-ALK5 (Homo sapiens) | pIC50 | 6.00 to 7.00 |
| NCCc1cccc(-c2cncc(-c3cc(-c4cc(Cl)ccc4F)nc4ncccc34)c2)c1 | GST-ALK5 (Homo sapiens) | pIC50 | > 7.00 |
| Cn1ccc2cc(-c3cncc(-c4cc(-c5cc(Cl)ccc5F)nc5ncccc45)c3)ccc21 | GST-ALK5 (Homo sapiens) | pIC50 | 6.00 to 7.00 |
| CN(C)CCc1ccc(-c2cncc(-c3cc(-c4cc(Cl)ccc4F)nc4ncccc34)c2)cc1 | GST-ALK5 (Homo sapiens) | pIC50 | > 7.00 |
| Cc1cccc(-c2cc(-c3cncc(-c4ccccc4)c3)c3cccnc3n2)n1 | GST-ALK5 (Homo sapiens) | pIC50 | 6.00 to 7.00 |
| CN1CCN(c2cccc(-c3cncc(-c4cc(-c5cc(Cl)ccc5F)nc5ncccc45)c3)n2)CC1 | GST-ALK5 (Homo sapiens) | pIC50 | 6.00 to 7.00 |
| Fc1ccccc1-c1cc(-c2cncc(-c3cnc4[nH]ncc4c3)c2)c2cccnc2n1 | GST-ALK5 (Homo sapiens) | pIC50 | 6.00 to 7.00 |
| CN1CCN(c2cc(-c3cncc(-c4cc(-c5cc(Cl)ccc5F)nc5ncccc45)c3)ncn2)CC1 | GST-ALK5 (Homo sapiens) | pIC50 | 6.00 to 7.00 |
| CN1CCC(c2nc(-c3cncc(-c4cc(-c5cc(Cl)ccc5F)nc5ncccc45)c3)no2)CC1 | GST-ALK5 (Homo sapiens) | pIC50 | > 7.00 |
| CCN1CCc2ccc(-c3cncc(-c4cc(-c5cc(Cl)ccc5F)nc5ncccc45)c3)cc2C1 | GST-ALK5 (Homo sapiens) | pIC50 | > 7.00 |
| Cn1cc(-c2cncc(-c3cc(-c4cc(C(F)(F)F)ccc4F)nc4ncccc34)c2)cn1 | GST-ALK5 (Homo sapiens) | pIC50 | > 7.00 |
| CC(=O)Nc1cccc(-c2cncc(-c3cc(-c4cc(Cl)ccc4F)nc4ncccc34)c2)n1 | GST-ALK5 (Homo sapiens) | pIC50 | > 7.00 |
| Fc1ccccc1-c1cc(-c2cncc(-c3nccc(N4CCNCC4)n3)c2)c2cccnc2n1 | GST-ALK5 (Homo sapiens) | pIC50 | > 7.00 |
| Fc1ccccc1-c1cc(-c2cncc(-c3cccnc3)c2)c2cccnc2n1 | GST-ALK5 (Homo sapiens) | pIC50 | 5.00 to 6.00 |
| Fc1ccc(Cl)cc1-c1cc(-c2cncc(-c3cnn(C4CCNCC4)c3)c2)c2cccnc2n1 [compound 11, dihydrochloride] | GST-ALK5 (Homo sapiens) | pIC50 | > 7.00 |
| Cn1cc(-c2cncc(-c3cc(-c4cc(Cl)ccc4F)nc4ncccc34)c2)cn1 | GST-ALK5 (Homo sapiens) | pIC50 | > 7.00 |
| CN1CC[C@@H](n2cc(-c3cncc(-c4cc(-c5cc(Cl)ccc5F)nc5ncccc45)c3)cn2)C1 | GST-ALK5 (Homo sapiens) | pIC50 | > 7.00 |
| CN1CCC(n2cc(-c3cncc(-c4cc(-c5cc(Cl)ccc5F)nc5ncccc45)n3)cn2)CC1 | GST-ALK5 (Homo sapiens) | pIC50 | > 7.00 |
| CN1CCN(CCCn2cc(-c3cncc(-c4cc(-c5ccccc5F)nc5ncccc45)c3)cn2)CC1 | GST-ALK5 (Homo sapiens) | pIC50 | > 7.00 |
| Fc1ccc(Cl)cc1-c1cc(-c2cncc(-c3ccc(N4CCNCC4)nc3)c2)c2cccnc2n1 | GST-ALK5 (Homo sapiens) | pIC50 | > 7.00 |
| Fc1ccc(Cl)cc1-c1cc(-c2cncc(-c3cccc(-n4ccnc4)n3)c2)c2cccnc2n1 | GST-ALK5 (Homo sapiens) | pIC50 | < 5.00 |
| CN1CCC(n2cc(-c3cncc(-c4cc(-c5ccccc5F)nc5ncccc45)c3)cn2)CC1 | GST-ALK5 (Homo sapiens) | pIC50 | > 7.00 |
